molecular target: Recombinant human DGAT2 protein (Homo sapiens, UniProt Q96PD7); construct: FLAG (DYKDDDDK); (N); used as a membrane preparation; assay: Measurement of inhibitory effect against DGAT2 enzyme activity (SPA, Phospholipid FlashPlate, [14C]-TG production); details: concentration inhibiting [14C]-labeled triacyl glycerol (TG) production by 50%; 2 μg DGAT2-membrane protein from Sf-21 cells, 37° C.
Sequence (Q96PD7 whole entry): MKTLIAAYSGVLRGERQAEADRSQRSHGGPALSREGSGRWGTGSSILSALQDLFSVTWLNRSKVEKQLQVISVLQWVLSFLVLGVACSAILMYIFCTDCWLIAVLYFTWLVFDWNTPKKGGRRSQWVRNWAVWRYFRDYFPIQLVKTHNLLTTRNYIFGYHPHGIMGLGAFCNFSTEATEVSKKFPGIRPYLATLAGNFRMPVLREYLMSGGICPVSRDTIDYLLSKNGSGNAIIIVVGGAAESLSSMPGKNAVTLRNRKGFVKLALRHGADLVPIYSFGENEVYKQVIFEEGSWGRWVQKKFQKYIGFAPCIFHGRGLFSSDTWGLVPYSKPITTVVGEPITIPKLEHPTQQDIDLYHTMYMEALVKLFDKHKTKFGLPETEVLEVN
pIC50: −log10 of the molar value.
MEASURED QUANTITY: pIC50

Query (compound): CCOc1ccccc1O[C@@H]1CCCN(c2cncc(NC(=O)CCc3cccc(C(=O)O)c3)n2)C1 ; field requested: pIC50
6.15

Queued: CCOc1ccccc1O[C@@H]1CCCN(c2cncc(NC(=O)C3CCN(c4ncc(CC)cn4)CC3)n2)C1
8.10

Same for CCOc1ccccc1O[C@@H]1CCCN(c2cncc(NC(=O)c3cccc(OC)c3)n2)C1
6.64

P. CCOc1ccccc1O[C@@H]1CCCN(c2cncc(NC(=O)CCc3cc(C)c(C(=O)O)c(C)c3)n2)C1
Q. CCOc1ccccc1O[C@@H]1CCCN(c2cncc(NC(=O)CCc3ccc(CC(N)=O)cc3)n2)C1
R. CC(C)(Cc1ccc(C(C)(C)C(=O)Nc2cncc(N3CCC[C@@H](Oc4ccccc4OC4CCC4)C3)n2)cc1)C(=O)O
S. CCOc1ccccc1O[C@@H]1CCCN(c2cncc(NC(=O)COc3ccc(CC(=O)O)cc3)n2)C1
Provide the items ranked by increasing pIC50. Reply with the labels, ordered as the question asks.
R, S, P, Q
